Cited source: PubChem BioAssay AID652257

- experimentalSystem: Protein arginine N-methyltransferase 1 (Homo sapiens)
- experimentDescription: human PRMT1 activity-probe blockers – biochemical, fluorescence polarization, primary screen (AID 652257)
- condition: recombinant PRMT1, activity-based probe fluorescence polarization; at 2.79 µM
The campaign covered roughly 370,000 compounds. About 4,800 (1.3%) were called active.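 Rule for the calls: active = inhibition above about 21% made by adding two undisclosed values (limit read from the data); inactive = the rest.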 The entries come from a sample that favours actives as a whole.
// one of active, inactive, no free text

Q: Status in this test for Cc1cc(/C=N/Nc2ccc([N+](=O)[O-])cn2)c(C)n1-c1cccc(C(=O)O)c1 ?
Result: active

Q: Status in this test for Cc1nc(N)[nH]c(=O)c1Oc1cccc(C(F)(F)F)c1 ?
Result: inactive

Q: Status in this test for Cc1cccc(NC(=O)CSc2nnc(CCNC(=O)OC(C)(C)C)o2)c1C ?
Result: inactive

Q: Status in this test for Cc1ccc(C(=O)N(Cc2ccccn2)CC2CCCO2)cc1 (configuration not stated) ?
Result: inactive

Q: Status in this test for Cc1noc(C)c1C(=O)OC(C)C(=O)Nc1ccc2c(c1)OCO2 (configuration not stated) ?
Result: inactive

Q: Status in this test for NC(=O)c1ncn([C@@H]2O[C@H](CNCc3cnc(N4CCOCC4)s3)[C@@H](O)[C@H]2O)n1 ?
Result: inactive

Q: Status in this test for Cc1ccc(-n2c(SCC(=O)Nc3ccc(S(=O)(=O)Nc4nccs4)cc3)nnc2-c2ccccn2)cc1 ?
Result: inactive

Q: Status in this test for N#CC1=C(N)Oc2c(sc3ccccc23)C1c1ccco1 (configuration not stated) ?
Result: active

Q: Status in this test for O=C(/C=C/c1cccc(C(F)(F)F)c1)N1CCN(c2ccccn2)CC1 ?
Result: inactive

Q: Status in this test for CCOC(=O)C(=O)N(Cc1ccccc1)c1ccccc1C(=O)Nc1cc(OC)ccc1OC ?
Result: inactive

Q: Status in this test for COc1ccc(N2C(=O)CC(Sc3n[nH]c(-c4ccc(C)cc4)n3)C2=O)cc1 (configuration not stated) ?
Result: active

Q: Status in this test for O=[N+]([O-])c1ccc(NC(=S)N2CCN(c3ccccn3)CC2)cc1 ?
Result: inactive

* * *

So I've got a bunch of molecules here, and I need their inhibition values.
- experimentalSystem: Protein arginine N-methyltransferase 1 (Homo sapiens) (UniProt Q99873)
- Sequence (Q99873 whole entry, looked up): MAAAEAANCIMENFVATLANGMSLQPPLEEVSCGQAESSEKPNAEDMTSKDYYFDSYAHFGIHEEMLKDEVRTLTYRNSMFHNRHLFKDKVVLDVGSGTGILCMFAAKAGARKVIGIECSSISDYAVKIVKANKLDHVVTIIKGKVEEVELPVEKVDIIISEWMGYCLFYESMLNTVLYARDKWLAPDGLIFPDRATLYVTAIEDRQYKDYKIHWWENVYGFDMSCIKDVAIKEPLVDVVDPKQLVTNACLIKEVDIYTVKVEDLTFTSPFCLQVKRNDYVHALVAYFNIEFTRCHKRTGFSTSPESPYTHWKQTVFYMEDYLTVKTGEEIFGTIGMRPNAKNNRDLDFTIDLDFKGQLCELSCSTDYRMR
- experimentDescription: human PRMT1 activity-probe blockers – biochemical, fluorescence polarization, primary screen (AID 652257)
- condition: recombinant PRMT1, activity-based probe fluorescence polarization; at 2.79 µM; active compounds read high
Out of some 370,000 compounds screened, about 4,800 (1.3%) were called active. The entries come from a sample that favours actives as a whole.
Field: numeric (%). Do not append units.

Q: Entry C=C(C)CNC(=S)/N=c1\scc(C)n1CC needs its inhibition filled in; supply it.
Result: 2.72

Q: Entry COc1cc(C2CC(=O)N3CN(Cc4ccccc4)CSC3=C2C#N)ccc1OCc1ccccc1 (centres undefined) needs its inhibition filled in; supply it.
Result: 38.8

Q: Entry CC1Sc2ccc(C(=O)NCc3ccccc3Cl)cc2NC1=O (centres undefined) needs its inhibition filled in; supply it.
Result: 1.76

Q: Entry COc1cc(C2C(C(=O)c3ccco3)=C(O)C(=O)N2c2cc(C)on2)ccc1OCc1ccccc1 (centres undefined) needs its inhibition filled in; supply it.
Result: 4.72

Q: Entry COC(=O)CC1CCc2cc(C)cc(C(CC(C)C)NC(=O)[C@H](CC(C)C)NC(=O)OCc3ccccc3)c2O1 (some centres undefined) needs its inhibition filled in; supply it.
Result: -2.67

Q: Entry Cc1ccc(Cc2c(-c3ccc(Cl)cc3)nc3c4ccccc4ccn23)cc1 needs its inhibition filled in; supply it.
Result: -0.73

Q: Entry CCNC(=O)CC1C(=O)N(c2ccc(F)cc2)C(=O)N1CCc1sccc1C (centres undefined) needs its inhibition filled in; supply it.
Result: -2.07

Q: Entry CCOc1cc(/C=N/n2cnnc2)c(Br)cc1O needs its inhibition filled in; supply it.
Result: 4.53

Q: Entry COC(C[C@@H](O)[C@H](C)[C@H](O)COCc1ccccc1)OC needs its inhibition filled in; supply it.
Result: -0.18

* * *

- experimentalSystem: Protein arginine N-methyltransferase 1 (Homo sapiens) (UniProt Q99873)
- experimentDescription: human PRMT1 activity-probe blockers – biochemical, fluorescence polarization, primary screen (AID 652257)
- condition: recombinant PRMT1, activity-based probe fluorescence polarization; at 2.79 µM; active compounds read high
Out of some 370,000 compounds screened, about 4,800 (1.3%) were called active. This excerpt belongs to a sample that is enriched for actives.
So I've got a bunch of molecules here, and I need their inhibition values.

Q: Entry Cc1sc(NC(=O)C2C3CCC(O3)C2C(=O)O)c(C(=O)OC(C)C)c1-c1ccc(Cl)cc1 (stereo unspecified) needs its inhibition filled in; supply it.
Result: 22.5% (active)

Q: Entry Cc1nnc(SCCCCSc2nnc(C)c(=O)[nH]2)[nH]c1=O needs its inhibition filled in; supply it.
Result: 2.02% (inactive)

Q: Entry O=S(=O)(c1ccc(SCc2ccc(Br)cc2)nc1)N1CCOCC1 needs its inhibition filled in; supply it.
Result: 0.76% (inactive)

Q: Entry Cc1cc(C)n(-c2nc(O)cc(=O)[nH]2)n1 needs its inhibition filled in; supply it.
Result: -0.2% (inactive)

Q: Entry Cc1ccc(C(=O)C2CCN(CC(=O)NCCC(C)C)CC2)cc1 needs its inhibition filled in; supply it.
Result: 4.05% (inactive)

Q: Entry O=C(Nc1c(-c2ccccc2)nc2c(Br)cc(Br)cn12)c1ccco1 needs its inhibition filled in; supply it.
Result: 0.75% (inactive)

Q: Entry O=C(c1ccc(S(=O)(=O)NCc2ccco2)cc1)N1CCN(c2ccccc2)CC1 needs its inhibition filled in; supply it.
Result: -5.34% (inactive)

Q: Entry CCOC(=O)CSc1nnc(CNc2ccc(F)cc2)o1 needs its inhibition filled in; supply it.
Result: -0.98% (inactive)

Q: Entry CC(C)OC(=O)c1sc2nc3c(cc2c1N)C(=O)CCC3 needs its inhibition filled in; supply it.
Result: 0.71% (inactive)

Q: Entry Clc1ccc(C(Cn2ccnc2)OCc2ccsc2Cl)c(Cl)c1 (stereo unspecified) needs its inhibition filled in; supply it.
Result: 1.55% (inactive)

Q: Entry COC(=O)Nc1nc2ccc(C(=O)C3CC3)cc2[nH]1 needs its inhibition filled in; supply it.
Result: -5.37% (inactive)

Q: Entry Cn1c(C(=O)NCCCN2CCCCC2)cc2sccc21 needs its inhibition filled in; supply it.
Result: -0.77% (inactive)

Q: Entry NC(=O)c1sc2nc3c(c(-c4ccccc4)c2c1N)CCC3 needs its inhibition filled in; supply it.
Result: 21.5% (active)

Q: Entry c1ccc2c(C[n+]3csc4ccccc43)cccc2c1 needs its inhibition filled in; supply it.
Result: 31.2% (active)

Q: Entry O=S(=O)(c1ccc(Sc2nnc3ccccn23)nc1)N1CCOCC1 needs its inhibition filled in; supply it.
Result: 65.8% (active)

Q: Entry O=C(Cc1ccccc1)NCC1OCCc2ccccc21 (stereo unspecified) needs its inhibition filled in; supply it.
Result: 0% (inactive)

* * *

- experimentalSystem: Protein arginine N-methyltransferase 1 (Homo sapiens)
- experimentDescription: human PRMT1 activity-probe blockers – biochemical, fluorescence polarization, primary screen (AID 652257)
- condition: recombinant PRMT1, activity-based probe fluorescence polarization; at 2.79 µM; active compounds read high
The campaign covered roughly 370,000 compounds. About 4,800 (1.3%) were called active. This is one part of a sample in which actives are shown more often than they occur.
So I've got a bunch of molecules here, and I need their inhibition values.
Field: numeric (%). Do not append units.

Q: Entry C=CS(=O)(=O)N(Cc1nnn(Cc2ccccc2)c1Br)[C@H](C(=O)OC)C(C)C needs its inhibition filled in; supply it.
Result: -6.2

Q: Entry Cn1ccnc1SCC(=O)Nc1ccc2c(c1)OCCO2 needs its inhibition filled in; supply it.
Result: 5.34

Q: Entry COc1ccc(OCC(=O)OCCN(C)C)cc1 needs its inhibition filled in; supply it.
Result: -3.78

Q: Entry Cc1cc2nc3c(=O)[nH]c(=O)nc-3n(C[C@H](O)[C@H](O)[C@H](O)CO)c2cc1C needs its inhibition filled in; supply it.
Result: 85.4

Q: Entry O=C(N[C@H](C(=O)N1CCC[C@H]1C(=O)NCCc1ccccc1Cl)c1ccccc1)c1ccccc1 needs its inhibition filled in; supply it.
Result: 4.7

Q: Entry CC1CN(CC(=O)NC(C)c2ccccc2)CC(C)O1 (configuration not stated) needs its inhibition filled in; supply it.
Result: 0.73

Q: Entry Cc1cc(NC(=O)c2ccccc2C)no1 needs its inhibition filled in; supply it.
Result: -1.67

Q: Entry O=C(COC(=O)Cn1[nH]c(=O)c2ccccc2c1=O)Nc1ncc(Cl)cc1Cl needs its inhibition filled in; supply it.
Result: -0.63

Q: Entry O=C(Nc1cccc(C(=O)NC2CC2)c1)c1ccc(F)c(S(=O)(=O)N2CCOCC2)c1 needs its inhibition filled in; supply it.
Result: 1.48

Q: Entry CCn1c(SCC(C)=O)nc2sc3c(c2c1=O)CCCC3 needs its inhibition filled in; supply it.
Result: -4.09

Q: Entry O=C(Nc1cccc(Cl)c1)c1cc(S(=O)(=O)N2CCCCC2)c[nH]1 needs its inhibition filled in; supply it.
Result: 3.07

Q: Entry O=C(Nc1ccccc1)c1nnsc1S(=O)(=O)c1ccc(Cl)cc1 needs its inhibition filled in; supply it.
Result: 89.9

Q: Entry O=C(NCc1ccc(F)cc1F)[C@@H]1CCCN1C(=O)[C@@H]1CCCN1C(=O)c1cccc(Cl)c1 needs its inhibition filled in; supply it.
Result: -3.37

Q: Entry COc1cc(C(=S)NCc2ccccc2)cc(Br)c1O needs its inhibition filled in; supply it.
Result: 27.5

Q: Entry CN1C(=O)c2cc(NS(C)(=O)=O)ccc2OC[C@@H]2O[C@@H](CC(=O)NCc3ccc(-c4ccccc4)cc3)CC[C@H]21 needs its inhibition filled in; supply it.
Result: -3.76

Q: Entry COc1cc(-c2nnn(CC(=O)NCc3ccccc3)n2)cc(OC)c1OC needs its inhibition filled in; supply it.
Result: 2.73

Q: Entry Cc1ccc(NC(=O)c2cc(-c3ccc(C)o3)nc3ccccc23)nc1 needs its inhibition filled in; supply it.
Result: 47.4

Q: Entry CSCCNC(=O)c1ccc2nc(Cc3ccccc3F)oc2c1 needs its inhibition filled in; supply it.
Result: 3.93

Q: Entry COc1ccc(C(=O)COC(=O)COc2ccc(C)c(C)c2)cc1 needs its inhibition filled in; supply it.
Result: 29.1

Q: Entry Cc1ccc(OCC(=O)Nc2ccc(C(=O)O)cc2NC(=O)COc2ccc(C)c(C)c2)cc1C needs its inhibition filled in; supply it.
Result: -0.54

Q: Entry COc1ccccc1C(=O)NN1C(=O)C2C3C=CC(O3)C2C1=O (configuration not stated) needs its inhibition filled in; supply it.
Result: 35.6

Q: Entry CCC(NC(=O)C1C2C=CC3(CN(Cc4ccccc4)C(=O)C13)O2)c1ccccc1 (configuration not stated) needs its inhibition filled in; supply it.
Result: 2.19

Q: Entry COc1ccc(-n2c(COc3ccccc3)nnc2SCC(=O)Nc2ccc3c(c2)OCO3)cc1 needs its inhibition filled in; supply it.
Result: 0.3

Q: Entry COc1ccc(CSc2nnc(-c3cccc(C)c3)n2C)cc1 needs its inhibition filled in; supply it.
Result: 8.96

Q: Entry O=C(OC12CCCN(C1)/C(=C/c1cccnc1)C2)C1CCCC1 (configuration not stated) needs its inhibition filled in; supply it.
Result: 0.1

Q: Entry CN(C(=O)COC(=O)c1cc(-c2ccco2)nc2ccccc12)C1CCS(=O)(=O)C1 (configuration not stated) needs its inhibition filled in; supply it.
Result: 21.6

Q: Entry COc1ccccc1OCCC(=O)OCC(=O)NCc1ccccc1 needs its inhibition filled in; supply it.
Result: 0.43

Q: Entry Cc1cc(C(=O)OCC(=O)N2C(C)CCCC2C)c2ccccc2n1 (configuration not stated) needs its inhibition filled in; supply it.
Result: 7.6

Q: Entry O=C(CN1CCN(S(=O)(=O)c2cc(Cl)ccc2Cl)CC1)c1ccc(O)c(O)c1 needs its inhibition filled in; supply it.
Result: 18.9

Q: Entry O=C(CSc1ccc(/C=N/NC(=O)c2cccc(F)c2)o1)Nc1ccccc1 needs its inhibition filled in; supply it.
Result: 2.86

Q: Entry Cc1nnsc1C(=O)Nc1cccc(Cl)c1C needs its inhibition filled in; supply it.
Result: 2.23

Q: Entry COc1ccc(NC(=O)CN(C)C(=O)c2cc(-c3ccc(C)o3)nc3ccccc23)cc1 needs its inhibition filled in; supply it.
Result: 26.9
